Numbers sourced from patent US20220348543A1.

# MEASUREMENT_PROTOCOL: Solubility of Omecamtiv mecarbil salts in water solution (aqueous buffer) at different pH
# Assay type: physicochemical
# EXPERIMENTAL_CONDITIONS: aqueous buffer pH 6.8; USP / Ph. Eur. descriptive terms; read-out: Category of solubility (Descriptive Term)

SMILES_REPR: COC(=O)N1CCN(Cc2cccc(NC(=O)Nc3ccc(C)nc3)c2F)CC1
solubility: ≥ 1000 mg/mL

###

# MEASUREMENT_PROTOCOL: Solubility of Omecamtiv mecarbil salts in water solution (aqueous buffer) at different pH
# Type: physicochemical
# EXPERIMENTAL_CONDITIONS: simulated gastric fluid; aqueous buffer pH 1.2; USP / Ph. Eur. descriptive terms; read-out: Category of solubility (Descriptive Term)

SMILES_REPR: COC(=O)N1CCN(Cc2cccc(NC(=O)Nc3ccc(C)nc3)c2F)CC1
solubility: ≥ 1000 mg/mL
